- target.desc: Human full-length SHP2 recombinant protein (Homo sapiens (Human))
- Sequence (Q06124 whole entry): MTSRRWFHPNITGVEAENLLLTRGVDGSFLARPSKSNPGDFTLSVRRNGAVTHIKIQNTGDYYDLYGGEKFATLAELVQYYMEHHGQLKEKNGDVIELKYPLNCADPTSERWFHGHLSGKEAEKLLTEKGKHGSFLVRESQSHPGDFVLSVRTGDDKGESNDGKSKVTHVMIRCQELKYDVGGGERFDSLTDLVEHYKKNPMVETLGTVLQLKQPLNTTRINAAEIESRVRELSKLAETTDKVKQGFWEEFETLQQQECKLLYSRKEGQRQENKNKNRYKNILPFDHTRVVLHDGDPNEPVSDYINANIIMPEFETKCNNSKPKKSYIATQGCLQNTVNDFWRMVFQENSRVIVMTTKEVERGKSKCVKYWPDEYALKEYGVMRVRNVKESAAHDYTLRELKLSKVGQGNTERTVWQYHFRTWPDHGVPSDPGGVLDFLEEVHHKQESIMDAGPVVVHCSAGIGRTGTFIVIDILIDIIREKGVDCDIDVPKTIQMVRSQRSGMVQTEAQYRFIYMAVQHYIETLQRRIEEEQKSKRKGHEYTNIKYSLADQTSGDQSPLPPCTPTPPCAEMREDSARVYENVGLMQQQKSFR
- method: Assay of full-length SHP2 phosphatase activity
- measurement.conditions: DiFMUP substrate, with activating peptide
- Description: Example 2 Assay of Full-Length SHP2 Phosphatase Activity 1. […] IC50 values were calculated following formula 205: y=A+((B−A)/(1+((C/X)^D))), by using the XL-Fit 5.0 software.
Please respond with reported IC50 for every item in the list.
# number only, unit nM dropped from output

Request: I'd like to know its IC50. The compound in question is CCNC(=O)C#Cc1ccc2c(c1)[C@@H](N)C1(CCN(c3cnc(Sc4cc(F)nc(N)c4Cl)cn3)CC1)C2 [Compound 273]
Response: 1

Request: Could you tell me which IC50 is on file for NC(=O)C#Cc1ccc2c(c1)[C@@H](N)C1(CCN(c3cnc(Sc4ccnc(N)c4Cl)c(N)n3)CC1)C2 [Compound 129] ?
Response: 0.6

Request: Record request: IC50 value, item Cc1nc(N2CCC3(CC2)Cc2ccc(C#CC(N)=O)cc2[C@H]3N)cc(=O)n1-c1cccc(Cl)c1Cl [Compound 127]
Response: 0.6

Request: # input compound: CCNC(=O)C#Cc1ccc2c(c1)[C@@H](N)C1(CCN(c3ncc(Sc4ccnc(N)n4)nc3C)CC1)C2 [Compound 261] ; wanted: its IC50
Response: 0.9

Request: I have this compound here, CNCC#Cc1ccc2c(c1)[C@@H](N)C1(CCN(c3cc(=O)n(-c4cccc(Cl)c4Cl)c(C)n3)CC1)C2 [Compound 67] , and I need its recorded IC50.
Response: 1

Request: For the compound shown here, CCNC(=O)C#Cc1ccc2c(c1)[C@@H](N)C1(CCN(c3cnc(Sc4cc(N)ncc4Cl)c(N)n3)CC1)C2 [Compound 247] , give the reported IC50.
Response: 1

Request: Entry C#Cc1ccc2c(c1)[C@@H](N)C1(CCN(c3cc(=O)n(-c4cccc(Cl)c4Cl)c(C)n3)CC1)C2 (atropisomer, axis not shown) [Compound 12] : reported IC50 = ?
Response: 1

Request: For the compound CNC(=O)C#Cc1ccc2c(c1)[C@@H](N)C1(CCN(c3cnc(N4CCCc5ncccc54)cn3)CC1)C2 [Compound 251] , what IC50 is on record?
Response: 1

Request: Can you look up the measured IC50 of NC(=O)NCC#Cc1ccc2c(c1)[C@@H](N)C1(CCN(c3cnc(Sc4ccnc(N)c4Cl)c(N)n3)CC1)C2 [Compound 159] for me?
Response: 1

Request: Which IC50 is listed for C#Cc1ccc2c(c1)[C@@H](N)C1(CCN(c3cc(=O)n(-c4cccc(OC)c4Cl)c(C)n3)CC1)C2 [Compound 90] ?
Response: 1.1

* * *

- target.desc: Human full-length SHP2 recombinant protein (Homo sapiens (Human))
- method: Assay of full-length SHP2 phosphatase activity
- measurement.conditions: DiFMUP substrate, with activating peptide
- Description: Example 2 Assay of Full-Length SHP2 Phosphatase Activity 1. […] IC50 values were calculated following formula 205: y=A+((B−A)/(1+((C/X)^D))), by using the XL-Fit 5.0 software.
Would you kindly list pIC50 for each of these compounds?
The quantity pIC50 is defined as the negative base-10 logarithm of the molar concentration.

Request: Endpoint output: pIC50 of `CCNC(=O)C#Cc1ccc2c(c1)[C@@H](N)C1(CCN(c3cnc(Sc4c(F)cnc(N)c4Cl)cn3)CC1)C2` . Value?
Response: 9.05

Request: Would you mind telling me what pIC50 value was observed for `COCCNC(=O)C#Cc1ccc2c(c1)[C@@H](N)C1(CCN(c3cnc(Sc4ccnc(N)c4F)cn3)CC1)C2` ?
Response: 9.52

Request: Dear colleague, I am looking for the recorded pIC50 of the following compound: `COCC#Cc1ccc2c(c1)[C@@H](N)C1(CCN(c3ncc(-c4cn(C)c5ncccc45)c4nccn34)CC1)C2`
Response: 7.35
